Target: αCOPI-WD40 domain (residues 1-327) (Schizosaccharomyces pombe, UniProt Q96WV5, F197K/I192K/L181K/L185K/L196K)
Sequence (Q96WV5 1-327 L181K/L185K/I192K/L196K/F197K limits assumed): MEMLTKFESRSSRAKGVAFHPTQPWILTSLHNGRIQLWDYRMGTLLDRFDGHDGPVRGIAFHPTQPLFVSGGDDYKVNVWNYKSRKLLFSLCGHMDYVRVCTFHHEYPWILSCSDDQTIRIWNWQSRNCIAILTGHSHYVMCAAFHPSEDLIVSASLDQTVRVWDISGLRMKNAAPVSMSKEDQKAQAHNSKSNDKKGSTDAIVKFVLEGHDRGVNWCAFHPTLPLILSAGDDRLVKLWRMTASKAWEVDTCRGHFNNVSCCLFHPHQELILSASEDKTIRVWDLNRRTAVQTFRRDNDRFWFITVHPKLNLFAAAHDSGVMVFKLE
Test: biochemical
Assay type: binding
Settings: Kinetic KD
Peptide text beside a SMILES is read from it.
parameter-measured: pKd
Scale: negative log10 of molar concentration, which is what pKd denotes.

Sample answers from the record:
The value of pKd measured for the molecule CC(C)C[C@H](NC(=O)[C@H](CCCCN)NC(=O)[C@@H](NC(=O)CN)C(C)C)C(=O)N[C@@H](Cc1c[nH]cn1)C(=O)N[C@@H](Cc1ccc(O)cc1)C(=O)N[C@@H](CCC(N)=O)C(=O)O [GVKLHYQ] (H-GVKLHYQ-OH) turned out to be 5.94

CC(C)C[C@H](NC(=O)[C@H](CCCCN)NC(=O)[C@@H](NC(=O)CN)C(C)C)C(=O)N[C@@H](Cc1c[nH]cn1)C(=O)N[C@@H](Cc1ccc(O)cc1)C(=O)N[C@H](C(=O)O)C(C)C [GVKLHYV] (H-GVKLHYV-OH) yielded pKd of 5.69

Next, consider the following molecule.
Entry CC(C)C[C@H](NC(=O)[C@H](CCCCN)NC(=O)[C@@H](NC(=O)CN)C(C)C)C(=O)N[C@@H](CCCCN)C(=O)N[C@@H](Cc1ccc(O)cc1)C(=O)N[C@H](C(=O)O)[C@@H](C)O [GVKLKYT] (H-GVKLKYT-OH) ; pKd = 5.57
